Kindly supply the reported IC50 for inhibiting c-Met kinase values for the records listed here.
- studyTarget: c-Met kinase (His-tagged recombinant human Met (amino acids 974-end)) (Homo sapiens, UniProt P08581)
- Construct: His-tagged recombinant human Met (amino acids 974-end); His
- Sequence (P08581 956-1390): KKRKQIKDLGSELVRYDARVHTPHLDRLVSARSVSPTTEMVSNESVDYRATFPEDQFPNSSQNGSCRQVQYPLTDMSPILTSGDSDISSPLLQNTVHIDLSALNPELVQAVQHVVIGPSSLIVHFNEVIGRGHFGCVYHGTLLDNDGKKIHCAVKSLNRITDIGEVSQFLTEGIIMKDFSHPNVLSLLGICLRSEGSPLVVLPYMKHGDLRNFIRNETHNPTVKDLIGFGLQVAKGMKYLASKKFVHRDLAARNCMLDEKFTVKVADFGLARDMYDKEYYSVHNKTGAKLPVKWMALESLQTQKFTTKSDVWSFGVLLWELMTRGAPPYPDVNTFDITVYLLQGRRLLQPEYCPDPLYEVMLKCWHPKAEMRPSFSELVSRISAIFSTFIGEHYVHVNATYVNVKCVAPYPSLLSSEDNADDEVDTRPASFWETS
- runDescription: c-Met Enzyme Activity Inhibition Assay (ELISA)
- Assay type: biochemical
- experimentalSetup: 50 pM c-Met, 5 μM ATP, room temperature 20 min
- Experimental: c-Met Enzyme Activity Inhibition Assay The assay for the determination of c-Met kinase activity is based on an enzyme linked immunosorbant assay (ELISA). […] The reaction mixture was removed by washing and the phosphorylated polymer substrate was detected with 0.2 μg/mL phosphotyrosine specific monoclonal antibody (PY20) conjugated to horseradish peroxidase (HRP). […]
Return type: number; implicit unit µg/mL.

I would be grateful if you could share the reported IC50 for inhibiting c-Met kinase for COc1cc2c(Oc3ccc(NC(=O)c4nn(-c5ccc(C)cc5)c(=O)n(C)c4=O)cc3F)ccnc2cc1OCCCN1CCN(C)CC1 .
0.009

I would be grateful if you could share the reported IC50 for inhibiting c-Met kinase for COc1cc2c(Oc3ccc(NC(=O)c4nn(-c5ccc(Br)cc5)c(=O)n(C)c4=O)cc3F)ccnc2cc1OCCCN1CCCCC1 .
0.048

I would be grateful if you could share the reported IC50 for inhibiting c-Met kinase for COc1cc2c(Oc3ccc(NC(=O)c4nn(-c5ccc(Cl)cc5)c(=O)n(C)c4=O)cc3F)ccnc2cc1OCCCN1CCCCC1 .
0.71

I would be grateful if you could share the reported IC50 for inhibiting c-Met kinase for COc1cc2c(Oc3ccc(NC(=O)c4nn(-c5ccc(F)c(F)c5)c(=O)n(C)c4=O)cc3F)ccnc2cc1OCCCN1CCOCC1 .
0.32
